Each entry below carries its reported LD50.
Test system: Artemia
ASSAY_OVERVIEW: Toxicity in brine shrimp
Format: organism-based
EXPERIMENTAL_SETUP: in vivo
ATTRIBUTE_MEASURED: LD50 (ppm)

[[record]]
structure_as_smiles = "CC1=CC[C@H](C(C)C)[C@@H]2[C@H]1[C@@H]1C/C(C)=C/CC[C@@](C)(O)[C@H]2O1"
attribute_measured = "LD50"
unit_abbrev = "ppm"
measured = 39.2

[[record]]
structure_as_smiles = "C=C1CC[C@H](C(C)C)[C@@H]2[C@H]1[C@@H]1C/C(C)=C/CC[C@@](C)(OC(C)=O)[C@H]2O1"
attribute_measured = "LD50"
unit_abbrev = "ppm"
measured = 1.3

[[record]]
structure_as_smiles = "CC(=O)O[C@@H]1C=C(C)[C@H]2[C@@H]([C@H]1C(C)(C)OC(C)=O)[C@@H]1O[C@H]2C/C(C)=C/CC[C@@]1(C)OC(C)=O"
attribute_measured = "LD50"
unit_abbrev = "ppm"
measured = 8.7

[[record]]
structure_as_smiles = "CC1=C[C@@H](O)[C@H](C(C)(C)O)[C@@H]2[C@H]1[C@@H]1C/C(C)=C/CC[C@@](C)(O)[C@H]2O1"
attribute_measured = "LD50"
unit_abbrev = "ppm"
measured = 48


Source: ChEMBL document CHEMBL1146392
